So I've got a bunch of binders here, and I need their pIC50 values.
target: VEGF receptor on endothelial cells; assay: inhibition of radiolabeled VEGF binding to its receptor on endothelial cells; peptide concentration varied
Sequence (chain, as listed by the source): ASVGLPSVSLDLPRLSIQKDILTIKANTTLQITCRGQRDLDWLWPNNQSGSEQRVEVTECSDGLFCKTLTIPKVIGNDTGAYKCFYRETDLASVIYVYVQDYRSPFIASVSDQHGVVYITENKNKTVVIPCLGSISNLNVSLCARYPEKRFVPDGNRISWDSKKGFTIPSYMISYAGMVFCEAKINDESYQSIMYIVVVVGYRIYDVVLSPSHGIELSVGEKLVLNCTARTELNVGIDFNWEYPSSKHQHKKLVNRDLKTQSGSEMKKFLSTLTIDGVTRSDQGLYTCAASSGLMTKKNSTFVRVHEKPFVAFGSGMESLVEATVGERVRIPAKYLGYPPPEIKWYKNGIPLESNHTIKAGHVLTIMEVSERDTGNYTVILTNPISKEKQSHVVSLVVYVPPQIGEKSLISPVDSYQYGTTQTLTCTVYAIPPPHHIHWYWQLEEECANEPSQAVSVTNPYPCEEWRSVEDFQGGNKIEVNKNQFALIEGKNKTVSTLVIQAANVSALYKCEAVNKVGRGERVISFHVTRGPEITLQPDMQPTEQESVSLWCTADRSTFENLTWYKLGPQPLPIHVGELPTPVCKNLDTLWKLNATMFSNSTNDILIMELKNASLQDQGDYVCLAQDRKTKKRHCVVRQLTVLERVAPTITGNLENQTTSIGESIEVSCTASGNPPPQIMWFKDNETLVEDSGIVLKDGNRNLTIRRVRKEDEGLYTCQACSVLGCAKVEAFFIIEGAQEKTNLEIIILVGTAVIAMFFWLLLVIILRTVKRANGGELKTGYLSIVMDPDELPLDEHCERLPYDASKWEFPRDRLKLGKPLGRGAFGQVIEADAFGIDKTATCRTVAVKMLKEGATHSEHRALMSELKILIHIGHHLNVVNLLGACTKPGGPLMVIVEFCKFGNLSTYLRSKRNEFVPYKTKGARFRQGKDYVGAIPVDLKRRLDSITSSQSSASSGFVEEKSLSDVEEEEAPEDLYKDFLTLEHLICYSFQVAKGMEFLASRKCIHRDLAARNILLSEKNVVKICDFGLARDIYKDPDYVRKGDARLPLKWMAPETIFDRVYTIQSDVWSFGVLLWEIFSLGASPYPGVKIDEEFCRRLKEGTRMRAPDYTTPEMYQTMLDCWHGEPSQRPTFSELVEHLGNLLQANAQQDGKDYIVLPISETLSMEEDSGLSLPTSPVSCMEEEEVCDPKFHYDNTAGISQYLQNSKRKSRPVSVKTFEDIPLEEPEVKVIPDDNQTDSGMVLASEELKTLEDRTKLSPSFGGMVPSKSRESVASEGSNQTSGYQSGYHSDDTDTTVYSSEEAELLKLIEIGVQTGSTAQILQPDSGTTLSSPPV
When answering, recall that pIC50 equals minus log10 of the concentration in mol/L, and write that number alone.

Form field pIC50, entry YDGRGDSVVYGLKKKAARGRRAARGRR [ST100,032] : 6.37

Form field pIC50, entry PYAGRGDSVVYGLGGGPGAARGRRAARGRR [ST100,033] : 5.96
